organism: Homo sapiens; assay: Selectivity for plasma kallikrein over f7a; type: cell-free
Listed here: items and their measured Selectivity ratio.

| molecule | Selectivity ratio |
| --- | --- |
| COc1cccc(-c2cc(C(CC(=O)O)C(=O)O)cc(-c3nc4cc(C(=N)N)ccc4[nH]3)c2O)c1 (stereo not drawn) | 25 |
| COc1ccc(-c2cc(C(CC(=O)O)C(=O)O)cc(-c3nc4cc(C(=N)N)ccc4[nH]3)c2O)cc1 (stereo not drawn) | 85 |
| Cc1ccccc1-c1cc(C(CC(=O)O)C(=O)O)cc(-c2nc3cc(C(=N)N)ccc3[nH]2)c1O (stereo not drawn) | 10 |
| N=C(N)c1ccc2[nH]c(-c3cc(C(CC(=O)O)C(=O)O)cc(-c4cccc(Cl)c4)c3O)nc2c1 (stereo not drawn) | 22 |
| N#Cc1cccc(-c2cc(C(CC(=O)O)C(=O)O)cc(-c3nc4cc(C(=N)N)ccc4[nH]3)c2O)c1 (stereo not drawn) | 7 |
| N=C(N)c1ccc2[nH]c(-c3cc(C(CC(=O)O)C(=O)O)cc(-c4ccccc4)c3O)nc2c1 (stereo not drawn) | 9 |
| Cc1cccc(-c2cc(C(CC(=O)O)C(=O)O)cc(-c3nc4cc(C(=N)N)ccc4[nH]3)c2O)c1 (stereo not drawn) | 10 |
| CC(=O)c1cccc(-c2cc(C(CC(=O)O)C(=O)O)cc(-c3nc4cc(C(=N)N)ccc4[nH]3)c2O)c1 (stereo not drawn) | 5 |

Measured values drawn from ChEMBL document CHEMBL1146109 for this set.
